Tested on: primary human hepatic stellate cells (donor 1)
protocol-details: scaled lipid accumulation score (0 = DMSO-like, 1 = nortriptyline-like); higher = stronger HSC inactivation (lipid re-accumulation), active = hit call of the paper
condition-set: library stock concentration: 10 mM; 48 h
Counter-ions that a name gives are not always drawn. The whole screen tested about 5,800 compounds, of which about 620 (11%) showed activity.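 How the source made its calls: active = score above a cut-off or among the top three wells of a plate; in these data no inactive exceeds 0.85.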 Shown is part of a subset that was picked to be rich in actives.
# output must be one of Y (active), N (inactive)

Take a look at these entries with their results.
compound: CC(C)C[C@H](NP(=O)(O)O[C@@H]1O[C@@H](C)[C@H](O)[C@@H](O)[C@H]1O)C(=O)N[C@@H](Cc1c[nH]c2ccccc12)C(=O)O [Phosphoramidon Disodium Salt]
class: N
--
compound: CN(C)CCCCC(=O)Nc1ccc(NC(=S)NC(=O)c2ccc(C(C)(C)C)cc2)cc1
class: N
--
compound: CCNC(=O)C1=C(c2ccc(OC)cc2)C(=C2C=C(Cl)C(O)=CC2=O)NN1
class: Y
--
compound: CN(C)C/C=C/C(=O)Nc1cc2c(Nc3ccc(F)c(Cl)c3)ncnc2cc1O[C@H]1CCOC1 [Afatinib (TOVOK, BIBW-2992) (10 mM)]
class: N
--
compound: CN(C)CCC=C1c2ccccc2CCc2ccccc21.Cl [Amitriptyline HCl]
class: Y
--
compound: CCCc1nc(C)c2c(=O)nc(-c3cc(S(=O)(=O)N4CCN(CC)CC4)ccc3OCC)[nH]n12 [Vardenafil HCl Trihydrate]
class: N
--
compound: O=C(c1cccc(Cl)c1F)N1CCN(Cc2cccc(Nc3nccs3)n2)CC1
class: N
--
compound: CC(CCc1ccccc1)NCC(O)c1ccc(O)c(C(N)=O)c1 (centres undefined) [Labetalol HCl]
class: N
--
compound: CN(C)CCC=C1c2ccccc2COc2ccccc21 [Doxepin]
class: N
--
compound: Cc1ccc(S(=O)(=O)/C=C/C#N)cc1
class: Y

Which outcome was assigned to CCCCC(CC)COc1ccc(-c2nc(-c3ccc(OC)cc3)nc(-c3ccc(OCC(CC)CCCC)cc3O)n2)c(O)c1 (centres undefined) in this test?
N

Can you check CC(C)(C)NC[C@H](O)c1ccc(O)c(CO)c1 next?
N

Likewise for NCC(O)CC(=O)O (centres undefined) [Aminohydroxybutyric acid] ?
N

Item: CN1CCC(=C2c3ccccc3C=Cc3ccccc32)CC1
Y

Same question, COP(=O)(OC)OC(c1ccc(Cl)cc1)P(=O)(OC)OC (centres undefined) this time
N

Also need COC(=O)N[C@H](C(=O)N1CCC[C@H]1c1ncc(-c2ccc(-c3ccc(-c4cnc([C@@H]5CCCN5C(=O)[C@@H](NC(=O)OC)C(C)C)[nH]4)cc3)cc2)[nH]1)C(C)C , thanks.
Y

CC1(C)[C@H]2CC[C@]1(CS(=O)(=O)O)C(=O)C2=Cc1ccc(C=C2C(=O)[C@@]3(CS(=O)(=O)O)CC[C@@H]2C3(C)C)cc1 ?
N

Could you do the same for O=C(Nc1ccccc1)C12CC1C(=NO)c1ccccc1O2 (centres undefined) , please?
N

And CN(C)CC/C=C1/c2ccccc2COc2ccc(CC(=O)O)cc21 [Olopatadine HCl] ?
N

Another compound to check: CCCc1nc(C)c2c(=O)nc(-c3cc(S(=O)(=O)N4CCN(CC)CC4)ccc3OCC)[nH]n12
N

Also, CN(C)CCC=C1c2ccccc2CCc2ccccc21 [Amitriptyline hydrochloride] please.
N

How about this compound: COc1cc(N2CCN(C)CC2)ccc1Nc1nc(N)c(C(=O)c2c(Cl)cccc2Cl)s1
N
